# System Name: human neutrophil collagenase (MMP-8) catalytic domain (Homo sapiens)
# Construct: catalytic domain of human stromelysin (MMP 3) and neutrophil collagenase (MMP8)
# Sequence (P22894 100-262 limits assumed): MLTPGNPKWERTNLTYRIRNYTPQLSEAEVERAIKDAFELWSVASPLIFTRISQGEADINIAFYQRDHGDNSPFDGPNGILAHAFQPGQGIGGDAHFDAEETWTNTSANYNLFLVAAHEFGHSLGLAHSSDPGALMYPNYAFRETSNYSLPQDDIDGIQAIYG
# Assay Comment: Enzymatic activity of the catalytic domain of human neutrophil collagenase (MMP 8), fluorogenic substrate
# Condition Notes: Table 2; pH 7.5
Assay Readout: IC50 (µM)

Problem: # IC50 lookup, item CCCCCCOC(=O)Nc1ccc(-c2ccc(S(=O)(=O)N3Cc4ccccc4C[C@@H]3C(=O)O)cc2)cc1 [Example 3]
Solution: 2

1. O=C(Nc1ccc(-c2ccc(S(=O)(=O)N3Cc4ccccc4C[C@@H]3C(=O)O)cc2)cc1)OCC1CC1 [Example 5]
2. Cn1cnc2c1C[C@H](C(=O)O)N(S(=O)(=O)c1ccc(-c3ccc(NC(=O)OCC4CC4)cc3)cc1)C2 [Example 10]
Problem: Field: lower IC50 | Options: 1 / 2 Write down the label attached to your selection.
Solution: 2

Data origin, for the record: patent US6716853B2
